- EXPERIMENTAL_SYSTEM: human GLP-1 receptor (human, UniProt P43220 24-463)
- PROCEDURE_TEXT: cell-based or functional assay
Numbered stars: 1 amine (or outer) side, 2 acyl side, 3 side chain; on linkers, the order of the positions; unused ones are H or OH. Square brackets hold non-standard residues; d marks the D form. Side chains are listed from the residue outwards. Ends that are not written are not given here. γGlu = O=C(O)[C@H](CCC(=O)[*:2])N[*:1]; x70 = not defined here; Aib = CC(C)(N)C(=O)O
TEST_READOUT: EC50 hGLP-1R (cAMP) (pM)
Write the answer as a number in pM, unit excluded.

A selection of reference data follows.
{"BINDER": "HXQGTFTSDLSKQKESRRAQDFIEWLKAGGPSSGAPPPS (dSer at 2; K(γE-x53) at 14; C-terminal NH2) [SEQ ID NO: 4]", "EC50 hGLP-1R (cAMP), pM": 5}
{"BINDER": "HXQGTFTSDLSKQKESRRAQLFIEWLKAGGPSSGAPPPSK (dSer at 2; K(γE-x53) at 14; K(γE-x53) at 40; C-terminal NH2) [SEQ ID NO: 6]", "EC50 hGLP-1R (cAMP), pM": 141}

Lookup result for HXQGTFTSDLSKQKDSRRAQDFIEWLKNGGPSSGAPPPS (dSer at 2; K(γE-x53) at 14; C-terminal N(morpholin)) [SEQ ID NO: 102] ; measured EC50 hGLP-1R (cAMP): 7.2

Lookup result for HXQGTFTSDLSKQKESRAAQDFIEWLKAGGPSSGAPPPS (dSer at 2; K(GABA-x70) at 14; C-terminal NH2) [SEQ ID NO: 53] ; measured EC50 hGLP-1R (cAMP): 5.4

Lookup result for H[Aib]QGTFTSDLSKQK([γGlu-x70])DEQKAKLFIEWLKSGGPSSGAPPPS-NH2 (reading uncertain) [SEQ ID NO: 206] ; measured EC50 hGLP-1R (cAMP): 3.2

Lookup result for HXQGTFTSDLSKQKESRRAQLFIEWLKAXGPSSGAPPPS (Aib at 2; K(γE-x70) at 14; dAla at 29; C-terminal NH2) [SEQ ID NO: 205] ; measured EC50 hGLP-1R (cAMP): 12.3
